System: MCF7 breast
Test: NCI-60 one-dose screen, 48 h (100 = growth as untreated, 0 = no growth, -100 = all killed)
Details: 10 µM unless noted
The panel holds about 83,000 compounds, 20% with a hit somewhere; the sample as a whole holds those more often. The source made the active and inactive calls. Rule for the calls: active = growth percent below 10; inactive = the rest.
REPORTED ENDPOINT: growth

For orientation, consider the following solved cases.
{"columns": ["COMPOUND", "ENDPOINT RESULT"],
 "data": [
  ["CC(=O)NCC1c2c(n(C)c3c(Cl)c(Cl)ccc23)C(=O)NC1(C)C (centres undefined)", "92.1% (inactive)"],
  ["COc1cccc(C2=NN3C(C2)c2cc(Br)cc(OC)c2OC32CCN(Cc3ccccc3)CC2)c1 (centres undefined)", "96.3% (inactive)"],
  ["CN1C(=O)C2(SCC(C(=O)NCc3ccccc3)N2C(=O)C2CCCCC2)c2ccccc21 (centres undefined)", "94.8% (inactive)"],
  ["CCCCn1c(-c2ccc(C(=O)O/N=C(\\N)c3ccc4ccccc4c3)cc2)nc(-c2ccccc2)c1-c1ccccc1", "61.2% (inactive)"]
]}

// input: 4 compounds below; output: growth for each
1. Cc1ccc2c(C(C[N+](=O)[O-])c3ccccc3)c(-c3ccccc3)[nH]c2c1 (centres undefined)
2. C=C1c2nc3ccccc3n2C=C(c2ccc(Cl)cc2)N1Cc1ccc(OC)cc1
3. COc1cc(C=Nc2oc(-c3ccccc3)c(-c3ccccc3)c2C#N)cc(CN2CCCCC2)c1O
4. Cn1ncc2c(=O)nc3c(-c4ccccc4)n[nH]n3c21

15% [9.5 µM] (inactive)
54% (inactive)
94% (inactive)
92.8% (inactive)

I looked up `CN1CCN(c2ccc(Nc3c4ccccc4nc4ccccc34)cc2)CC1` and its growth for MCF7 breast was 99.1% (inactive)
